# target-desc: LTD4-induced contractions of isolated guinea pig trachea (Cavia porcellus, UniProt Q2NNR5)
# Construct: isolated guinea pig trachea; from tissue; host or cells: tracheal rings of male Hartley guinea pigs
# Sequence (Q2NNR5 whole entry): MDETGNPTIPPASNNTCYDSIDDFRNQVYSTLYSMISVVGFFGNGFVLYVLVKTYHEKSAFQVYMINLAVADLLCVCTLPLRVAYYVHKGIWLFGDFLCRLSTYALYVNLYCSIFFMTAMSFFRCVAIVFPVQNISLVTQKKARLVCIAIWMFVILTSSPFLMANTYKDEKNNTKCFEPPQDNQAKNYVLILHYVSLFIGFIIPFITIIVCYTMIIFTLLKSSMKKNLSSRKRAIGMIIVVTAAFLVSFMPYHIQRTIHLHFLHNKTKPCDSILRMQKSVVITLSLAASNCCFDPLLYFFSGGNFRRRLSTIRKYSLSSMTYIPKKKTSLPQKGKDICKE
# test-summary: In vitro isolated guinea pig trachea assay, LTD4 antagonist activity
# Parameters: species or system guinea pig (male Hartley)
# condition-parameters: 1 × 10^-5 M
Structures can show the parent of a compound that is named as a salt.
Would you kindly list Kb for each of these compounds?

Form field: Kb recorded for CC(=O)N(O)C(C)c1ccc(-c2ccc(OCc3nc4ccccc4s3)cc2)cc1 (centres unmarked) with LTD4-induced contractions of isolated guinea pig trachea (Cavia porcellus, UniProt Q2NNR5) (enter value) > 10 µM

Form field: Kb recorded for CC(C(=O)N(C)O)c1ccc(-c2ccc(OCc3nc4ccccc4s3)cc2)cc1 (centres unmarked) with LTD4-induced contractions of isolated guinea pig trachea (Cavia porcellus, UniProt Q2NNR5) (enter value) > 3.16 µM

Form field: Kb recorded for CC(C(=O)N(C)O)c1ccc(-c2ccc(OCc3nc4ccccc4n3C)cc2)cc1 (centres unmarked) [Example 24, hydrochloride salt] with LTD4-induced contractions of isolated guinea pig trachea (Cavia porcellus, UniProt Q2NNR5) (enter value) 1 µM

Form field: Kb recorded for CC(c1ccc(-c2ccc(OCc3nc4ccccc4s3)cc2)cc1)N(O)C(N)=O (centres unmarked) with LTD4-induced contractions of isolated guinea pig trachea (Cavia porcellus, UniProt Q2NNR5) (enter value) > 10 µM

Form field: Kb recorded for CN(O)C(=O)C(Cc1csc(-c2ccccc2)n1)c1ccc(-c2ccc(OCc3csc(-c4ccccc4)n3)cc2)cc1 (centres unmarked) with LTD4-induced contractions of isolated guinea pig trachea (Cavia porcellus, UniProt Q2NNR5) (enter value) > 7.94 µM

Form field: Kb recorded for CC(C)N(O)C(=O)Cc1ccc(-c2ccc(OCc3nc4ccccc4s3)cc2)cc1 with LTD4-induced contractions of isolated guinea pig trachea (Cavia porcellus, UniProt Q2NNR5) (enter value) > 10 µM

Form field: Kb recorded for CN(O)C(=O)Cc1ccc(-c2ccc(OCc3csc(-c4ccccc4)n3)cc2)cc1 with LTD4-induced contractions of isolated guinea pig trachea (Cavia porcellus, UniProt Q2NNR5) (enter value) > 7.94 µM

Form field: Kb recorded for CN(O)C(=O)Cc1ccc(-c2ccc(OCc3nc4ccccc4n3C)cc2)c(F)c1 with LTD4-induced contractions of isolated guinea pig trachea (Cavia porcellus, UniProt Q2NNR5) (enter value) 0.631 µM

Form field: Kb recorded for CC(C(=O)N(C)O)c1ccc(-c2ccc(OCc3csc(-c4ccccc4)n3)cc2)cc1 (centres unmarked) [Example 22, sodium salt, hydrate] with LTD4-induced contractions of isolated guinea pig trachea (Cavia porcellus, UniProt Q2NNR5) (enter value) 5.01 µM

Form field: Kb recorded for CC(C(=O)N(C)O)c1ccc(-c2ccc(OCc3csc(-c4ccccc4)n3)cc2)cc1 (centres unmarked) [Example 21] with LTD4-induced contractions of isolated guinea pig trachea (Cavia porcellus, UniProt Q2NNR5) (enter value) > 10 µM

Form field: Kb recorded for O=C(O)CCc1nc(-c2ccc(OCc3ccc4ccccc4n3)cc2)c(-c2ccccc2)o1 with LTD4-induced contractions of isolated guinea pig trachea (Cavia porcellus, UniProt Q2NNR5) (enter value) 0.316 µM

Form field: Kb recorded for O=C(O)Cc1ccc(-c2ccc(OCc3ccc4ccccc4n3)cc2)c(F)c1 with LTD4-induced contractions of isolated guinea pig trachea (Cavia porcellus, UniProt Q2NNR5) (enter value) 0.631 µM

Form field: Kb recorded for CC(c1ccc(-c2ccc(OCc3nc4ccccc4o3)cc2)cc1)N(O)C(N)=O (centres unmarked) with LTD4-induced contractions of isolated guinea pig trachea (Cavia porcellus, UniProt Q2NNR5) (enter value) > 5.01 µM

Form field: Kb recorded for O=C(Cc1ccc(-c2ccc(OCc3nc4ccccc4s3)cc2)cc1)NO with LTD4-induced contractions of isolated guinea pig trachea (Cavia porcellus, UniProt Q2NNR5) (enter value) > 7.94 µM

Form field: Kb recorded for CC(=O)N(O)C(C)c1ccc(-c2ccc(OCc3nc4ccccc4n3C)cc2)cc1 (centres unmarked) with LTD4-induced contractions of isolated guinea pig trachea (Cavia porcellus, UniProt Q2NNR5) (enter value) > 3.16 µM

Form field: Kb recorded for CN(O)C(=O)Cc1ccc(-c2ccc(OCc3ccccn3)cc2)c(F)c1 with LTD4-induced contractions of isolated guinea pig trachea (Cavia porcellus, UniProt Q2NNR5) (enter value) > 3.98 µM

Form field: Kb recorded for CN(O)C(=O)Cc1ccc(-c2ccc(OCc3nc4ccccc4s3)cc2)c(F)c1 with LTD4-induced contractions of isolated guinea pig trachea (Cavia porcellus, UniProt Q2NNR5) (enter value) > 10 µM
